- Test system: SF-539
- ASSAY SUMMARY: NCI tumour cell line growth inhibition, 48 h
Calls of active or inactive are those of the source. No stated cut-off is given here; in the data, active = GI50 up to about 1.1 µM and inactive = higher.
Labels: active, inactive

{"columns": ["COMPOUND", "EXPERIMENTAL TARGET", "CLASS NAME"],
 "data": [
  ["C/C(=N\\Nc1nc2ccccc2s1)c1ncccn1", "SF-539", "active"],
  ["C=CC1(C)CCC(C(C)C(=O)C(C=C(C)C)OC(C)=O)C12C(=O)Oc1ccccc1C2=O (configuration not stated)", "SF-539", "inactive"],
  ["CN[C@@H](C)[C@@H](NC)c1ccccc1", "SF-539", "inactive"],
  ["C[C@]12CCC(=O)C=C1CC[C@@H]1C2CC[C@]2(C)NC(=O)C(C#N)CC12 (some centres not stated)", "SF-539", "inactive"],
  ["NC(=O)c1ccccc1NC(=O)C(=O)Nc1n[nH]c(N)n1", "SF-539", "inactive"],
  ["Cn1nc(-c2ccccc2)nc1[N+](=O)[O-]", "SF-539", "inactive"],
  ["Cc1ccc(/C=N/Nc2nc3ccccc3s2)s1", "SF-539", "inactive"],
  ["COc1cc([C@@H]2c3cc4c(cc3[C@@H](Nc3ccc(Cl)cc3C(=O)c3ccccc3Cl)[C@H]3COC(=O)[C@H]23)OCO4)cc(OC)c1OC", "SF-539", "active"],
  ["CSc1nc2c(c(=O)n1C)N=C(c1ccc(Cl)cc1)CC(c1ccccc1)N2 (configuration not stated)", "SF-539", "inactive"],
  ["COc1ccc2c(c1)O[C@H]1c3ccc(O)cc3OC[C@@H]21", "SF-539", "inactive"],
  ["CCOC(=N)n1c(=O)n(C2=NCCN2)c2ccccc21", "SF-539", "inactive"],
  ["CC(=O)N1C2=CCCC2(C)c2ccccc21 (configuration not stated)", "SF-539", "inactive"],
  ["O=P(c1ccccc1)(c1ccccc1)C(NCc1ccccc1)c1ccc(F)cc1 (configuration not stated)", "SF-539", "inactive"],
  ["CC(C)=C[C@@H]1C[C@H](C)[C@H]2CC[C@H](C)[C@H]3C(=O)C(O)=C(C)C(=O)[C@]123", "SF-539", "inactive"],
  ["CC12CCC3C(CCC4=CC(O)CCC43C=O)C1(O)CCC2c1ccc(=O)oc1 (configuration not stated)", "SF-539", "active"],
  ["CC(=O)Nc1ccc(S(=O)(=O)N=S(C)C)cc1", "SF-539", "inactive"],
  ["COc1cccc(/C=C/C(=O)c2sc(C(N)=S)nc2C)c1O", "SF-539", "inactive"],
  ["COc1cc(/C=C2/C(=O)NC(Cc3cc(OC)c(OC)c(C)c3OC)C(=O)N2Cc2ccccc2)c(OC)c(C)c1OC (configuration not stated)", "SF-539", "inactive"],
  ["CC1=C(c2ccc(C)cc2)NC(=S)C(C)C(c2ccc(C)cc2)=N1 (configuration not stated)", "SF-539", "inactive"],
  ["CCNCCCCNCC", "SF-539", "inactive"],
  ["NC(=O)c1[nH]nc(C2OC(CO)C(O)C2O)c1O (configuration not stated)", "SF-539", "inactive"],
  ["CC(=O)Nc1cccc2[nH]c3ccccc3c(=O)c12", "SF-539", "inactive"]
]}

====

Entries and their GI50
- Test system: IGROV-1
- ASSAY SUMMARY: NCI tumour cell line growth inhibition, 48 h
Activity calls are given as the source filed them. Rule as the data show it: active = GI50 up to about 1.1 µM and inactive = higher.
OBSERVATION TYPE: GI50

{"columns": ["MOLECULE", "OBSERVATION TYPE", "DATA VALUE"],
 "data": [
  ["COc1ccc(C2C=C(c3ccccc3)Nc3nnnn32)cc1 (stereo not given)", "GI50", "82.8 µM (inactive)"],
  ["CC(C)C1=CC2=C(C(=O)C1=O)C13CCCC(C)(C)C1CC2OC3=O (stereo not given)", "GI50", "17.3 µM (inactive)"],
  ["C=CNC(=O)NC(=O)CSc1nc(=O)c(-c2ccccc2NC(=O)C(F)(F)F)n[nH]1", "GI50", "> 100 µM (inactive)"],
  ["C=C1C2CC[C@@](C)(O)C2[C@H]2OC(=O)C(=C)[C@@H]2C[C@H]1O (stereo not given in full)", "GI50", "28.4 µM (inactive)"],
  ["C[S+](C)CCOC(=O)C(=[N+]=[N-])c1ccc([N+](=O)[O-])cc1", "GI50", "> 100 µM (inactive)"]
]}

====

- System: CCRF-CEM
- ASSAY SUMMARY: NCI tumour cell line growth inhibition, 48 h
Activity calls are given as the source filed them. No stated cut-off is given here; in the data, active = GI50 up to about 1.1 µM and inactive = higher. Peptide text beside a SMILES is read from it. * marks the point of attachment. Boc = CC(C)(C)OC(=O)*; OBn = c1ccc(CO*)cc1
Labels: active, inactive

{"columns": ["COMPOUND", "CLASS NAME"],
 "data": [
  ["COc1ccc(CNc2nc3cc(C(F)(F)F)ccc3nc2C(=O)O)cc1", "inactive"],
  ["CC(NC(=O)C(NC(=O)OC(C)(C)C)C(C)C)C(=O)N1CCCC1C(=O)NCC(=O)NC(C(=O)NCC(=O)OCc1ccccc1)C(C)C (centres undefined) (Boc-VAPGVG-OBn; configuration not given here)", "inactive"],
  ["CC(ON1[C@](C)(c2ccccc2)CC[C@@]1(C)c1ccccc1)c1ccccc1 (some centres undefined)", "inactive"],
  ["CN(C)c1ccc(C2SCC(=O)N2c2nc3cc4sc(N5C(=O)CSC5c5ccc(N(C)C)cc5)nc4cc3s2)cc1 (centres undefined)", "inactive"],
  ["COc1ccc2cc(CNCCCCCCNCc3ccc4cc(OC)ccc4c3)ccc2c1", "active"],
  ["COc1ccc(-c2oc3cc(-c4cc5oc(-c6ccc(OC)cc6)c(-c6ccc(OC)cc6)c5cc4OC)c(OC)cc3c2-c2ccc(OC)cc2)cc1", "inactive"],
  ["NC(=O)c1ccccc1NC(=O)C(=O)Nc1n[nH]c(N)n1", "inactive"],
  ["COc1ccc(CCn2ccc(C)n2)c(OC)c1", "inactive"],
  ["COc1ccc2nc3c(C(=O)NCCN(C)C)cccc3cc2c1", "inactive"],
  ["CC1(C)CC(C#Cc2ccccc2)CC(C)(C)N1O", "inactive"],
  ["CC(=O)C1(/N=N/c2ccc(S(N)(=O)=O)cc2)CCOC1=O (centres undefined)", "inactive"],
  ["Nc1nc(Cl)cc(NCC2(CO)CCC(OCc3ccccc3)C2)n1 (centres undefined)", "inactive"],
  ["COc1cc(O)c2c(c1)C(=O)C1=C(C2=O)C(O)C[C@@](C)(O)C1 (some centres undefined)", "inactive"],
  ["O=C1NC(=S)N/C1=C\\c1cccs1", "inactive"],
  ["c1csc(-c2cc(-c3cccs3)c(-c3cccs3)s2)c1", "inactive"],
  ["CC(=O)NC(CCCNC(=O)N(C)N=O)C(=O)NCc1ccccc1 (centres undefined)", "inactive"],
  ["O=c1cc(NCc2ccncc2)[nH]c(=O)[nH]1", "inactive"],
  ["COc1ccc2cc(CN3CCC(C4CCN(Cc5ccc6cc(OC)ccc6c5)CC4)CC3)ccc2c1", "inactive"],
  ["COc1ccc(C(c2ccc(C(C)C)cc(=O)c2O)c2c(O)cc3oc(-c4ccccc4)cc(=O)c3c2O)cc1 (centres undefined)", "inactive"],
  ["CCOC(=O)C(SCCO)C(C(=O)OCC)n1ccc(=O)[nH]c1=O (centres undefined)", "inactive"],
  ["COc1ccc(C2c3cc4c(cc3OC(N3CCOCC3)C2C)OCO4)cc1OC (centres undefined)", "inactive"],
  ["CCOC(=O)N/N=C(/N)Cc1ccccc1", "inactive"],
  ["O=c1[nH]nc2ccccc2c1Cc1ccccc1", "inactive"],
  ["Cc1ccc(C2[C@H]3C(=O)N(c4ccc(Cc5ccc(N6C(=O)[C@@H]7ON(c8ccccc8)C(c8ccc(C)cc8)[C@@H]7C6=O)cc5)cc4)C(=O)[C@H]3ON2c2ccccc2)cc1 (some centres undefined)", "inactive"],
  ["CCN(CC)CCNc1ccc(C)c2sc3ccc(O)cc3c(=O)c12", "active"],
  ["COc1cc(C=C2C(C)=NN(c3cccc(Cl)c3)C23C(Cl)C(=O)N3c2nc3ccccc3s2)ccc1O (centres undefined)", "inactive"],
  ["Oc1cc(Cl)cc2cc(Br)cnc12", "inactive"],
  ["Cn1ncc2c(Nc3cccc(Cl)c3)nc(Nc3cccc(Cl)c3)nc21", "inactive"],
  ["O=C1C(=O)C2(CC1S(=O)(=O)c1ccccc1)c1ccccc1-c1ccccc12 (centres undefined)", "inactive"]
]}

====

- System: SK-MEL-28
- ASSAY SUMMARY: NCI tumour cell line growth inhibition, 48 h
Active and inactive are the calls of the source. Cut-off read from the data, not from the text of the source: active = GI50 up to about 1.1 µM and inactive = higher.
Outcomes: class 1 for active, class 0 for inactive

{"columns": ["COMPOUND", "EXPERIMENTAL TARGET", "CLASS NAME"],
 "data": [
  ["c1ccc2[nH]c3[nH]c4[nH]c5ccccc5[nH]c4[nH]c3[nH]c2c1", "SK-MEL-28", "class 0"],
  ["CC(Cc1ccc2c(c1)OCO2)N(C)C(=O)C1=CCN(C)CC1 (stereo unspecified)", "SK-MEL-28", "class 0"],
  ["O=C(NS(=O)(=O)OCC(Cl)(Cl)Cl)SCCC(F)(F)C(F)(F)C(F)(F)C(F)(F)C(F)(F)C(F)(F)F", "SK-MEL-28", "class 0"],
  ["CN(C)Cc1cc(C(=O)/C=C/c2ccc(F)cc2)cc(CN(C)C)c1O", "SK-MEL-28", "class 0"],
  ["C/C(=N\\Nc1nc2ccccc2s1)c1ncccn1", "SK-MEL-28", "class 1"],
  ["COC(=O)c1c(O)ccc2c1C1(Cc3ccccc3C1=O)C(O)O2 (stereo unspecified)", "SK-MEL-28", "class 0"],
  ["Oc1cc(Cl)cc2cc(Br)cnc12", "SK-MEL-28", "class 0"],
  ["CCOc1ccc2c(c1)[n+]([O-])c(-c1nc3ccccc3s1)c(N)[n+]2[O-]", "SK-MEL-28", "class 0"],
  ["CC(C)[Si]1(C(C)C)OCC2OC(n3c(C(=O)c4ccccc4)cc(=O)[nH]c3=O)CC2O[Si](C(C)C)(C(C)C)O1 (stereo unspecified)", "SK-MEL-28", "class 0"],
  ["O=C(CC/C(C/C(=N/O)c1ccc(F)cc1)=N/O)N(Cc1ccccc1)Cc1ccccc1", "SK-MEL-28", "class 0"],
  ["COc1ccc(NC2Oc3cc4c(cc3C(c3cc(OC)c(O)c(OC)c3)C2C)OCO4)cc1 (stereo unspecified)", "SK-MEL-28", "class 0"],
  ["CCN(CC)CCCNc1[nH]c2ccccc2c2nc3ccc(OC)cc3c1-2", "SK-MEL-28", "class 0"],
  ["CC(C)c1nccn1Cc1ccc(Cl)cc1Cl", "SK-MEL-28", "class 0"],
  ["c1csc(-c2cc(-c3cccs3)c(-c3cccs3)s2)c1", "SK-MEL-28", "class 0"],
  ["O=C1[C@@H]2[C@@H](CN3CN(c4ccccc4)N=C(c4ccccc4)[C@@]23c2ccccc2)C(=O)N1c1ccccc1", "SK-MEL-28", "class 0"],
  ["COc1cccc(CCn2c(N)c(C#N)c3ccc([N+](=O)[O-])cc3c2=O)c1", "SK-MEL-28", "class 0"],
  ["COc1cc(O)c2c(c1)C(=O)C1=C(C2=O)C(O)C[C@@](C)(O)C1 (stereo partly specified)", "SK-MEL-28", "class 0"],
  ["OC1CN=C2c3ccccc3C(O)(c3ccc(Cl)cc3)N2C1 (stereo unspecified)", "SK-MEL-28", "class 0"],
  ["COC(=O)CCc1cc(O)c2c(c1)C(C(=O)OC)C(c1ccc(O)c(O)c1)O2 (stereo unspecified)", "SK-MEL-28", "class 0"],
  ["Nc1ccc(-c2nn3c(COc4ccc(Cl)cc4)nnc3s2)cc1", "SK-MEL-28", "class 0"],
  ["COC1OC(C)C(O)CC1OS(=O)(=O)c1ccc(C)cc1 (stereo unspecified)", "SK-MEL-28", "class 0"]
]}
